tested on: Salmonella typhimurium IID-971; assay: Antibacterial activity, minimum inhibition concentration (MIC); type: cell-based; settings: Salmonella enterica, Table 1; Salmonella typhimurium IID-971; read-out: minimum inhibition concentration (MIC)
I'd appreciate it if you marked entries Yes when MIC is lower than 0.1 µg/mL and No when it is not.

>>> df
                                   compound              measurement_target  category_label
0  Cn1nnnc1SCC1=C(C(=O)O)N2C(=O)C(NC(=O)C(=CC#N)c3csc(N)n3)C2SC1 (single isomer, unassigned)  Salmonella typhimurium IID-971             Yes

Prompt line: Dear reviewer, please state whether CC1=C(C(=O)O)N2C(=O)C(NC(=O)C(=CCl)c3csc(N)n3)C2SC1 (single isomer, unassigned) has MIC strictly beneath 0.1 µg/mL.
Response line: Yes

Prompt line: Dear reviewer, please state whether Cn1nnnc1SCC1=C(C(=O)O)N2C(=O)C(NC(=O)C(=CCl)Sc3cnc(N)s3)C2SC1 (stereo not shown) has MIC strictly beneath 0.1 µg/mL.
Response line: No

Prompt line: Dear reviewer, please state whether Nc1nc(C(=CCl)C(=O)NC2C(=O)N3C(C(=O)O)=C(CSc4nnnn4CC(=O)O)CS[C@H]23)cs1 (single isomer, unassigned) has MIC strictly beneath 0.1 µg/mL.
Response line: Yes

Prompt line: Dear reviewer, please state whether Cc1nnc(SCC2=C(C(=O)O)N3C(=O)C(NC(=O)C(=CCl)c4csc(N)n4)C3SC2)s1 (single isomer, unassigned) has MIC strictly beneath 0.1 µg/mL.
Response line: Yes

Prompt line: Dear reviewer, please state whether CCSC=C(C(=O)NC1C(=O)N2C(C(=O)O)=C(CSc3nnnn3C)CSC12)c1csc(N)n1 (stereo not shown) has MIC strictly beneath 0.1 µg/mL.
Response line: Yes

Prompt line: Dear reviewer, please state whether CC(=O)OCC1=C(C(=O)O)N2C(=O)C(NC(=O)C(=CCl)c3cnc(N)s3)C2SC1 (stereo not shown) has MIC strictly beneath 0.1 µg/mL.
Response line: No

Prompt line: Dear reviewer, please state whether Cl.Cn1nnnc1SCC1=C(C(=O)O)N2C(=O)C(NC(=O)C(=CC#N)c3csc(N)n3)[C@H]2SC1 (single isomer, unassigned) has MIC strictly beneath 0.1 µg/mL.
Response line: No

Prompt line: Dear reviewer, please state whether Cn1nnnc1SCC1=C(C(=O)O)N2C(=O)C(NC(=O)C(=CCl)c3ccccc3)C2SC1 (single isomer, unassigned) has MIC strictly beneath 0.1 µg/mL.
Response line: No
